Target: Phospholipase A2, major isoenzyme (Sus scrofa)
Assay: Inhibition of porcine pancreatic PLA2 activity at 25 uM and below
The source made the active and inactive calls. The calls are words filed in the database; no cut-off is given here.
ASSAY METRIC: inhibition

| SMILES NOTATION | ASSAY METRIC | OBSERVED MEASUREMENT |
| --- | --- | --- |
| CCCCC[N+](CCCCC)(CCCCC)CCCCCCCCCCCC[N+](CCCCC)(CCCCC)CCCCC.[Br-].[Br-] | inhibition | inactive |
| C[N+](C)(C)CCCCCCCCCCCC[N+](C)(C)C.[Br-].[Br-] | inhibition | inactive |
| CC(C)CC[N+](CCCCCCCCCCCC[N+](CCC(C)C)(CCC(C)C)CCC(C)C)(CCC(C)C)CCC(C)C.[Cl-].[Cl-] | inhibition | inactive |
| CCCCCC[N+](CCCCCC)(CCCCCC)CCCCCCCCCCCC[N+](CCCCCC)(CCCCCC)CCCCCC | inhibition | inactive |
| CCCC[N+](CCCC)(CCCC)CCCCCCCCCCCC[N+](CCCC)(CCCC)CCCC | inhibition | inactive |

----------
Target: Phospholipase B (Cryptococcus neoformans)
Sequence (Q9P8P2 whole entry): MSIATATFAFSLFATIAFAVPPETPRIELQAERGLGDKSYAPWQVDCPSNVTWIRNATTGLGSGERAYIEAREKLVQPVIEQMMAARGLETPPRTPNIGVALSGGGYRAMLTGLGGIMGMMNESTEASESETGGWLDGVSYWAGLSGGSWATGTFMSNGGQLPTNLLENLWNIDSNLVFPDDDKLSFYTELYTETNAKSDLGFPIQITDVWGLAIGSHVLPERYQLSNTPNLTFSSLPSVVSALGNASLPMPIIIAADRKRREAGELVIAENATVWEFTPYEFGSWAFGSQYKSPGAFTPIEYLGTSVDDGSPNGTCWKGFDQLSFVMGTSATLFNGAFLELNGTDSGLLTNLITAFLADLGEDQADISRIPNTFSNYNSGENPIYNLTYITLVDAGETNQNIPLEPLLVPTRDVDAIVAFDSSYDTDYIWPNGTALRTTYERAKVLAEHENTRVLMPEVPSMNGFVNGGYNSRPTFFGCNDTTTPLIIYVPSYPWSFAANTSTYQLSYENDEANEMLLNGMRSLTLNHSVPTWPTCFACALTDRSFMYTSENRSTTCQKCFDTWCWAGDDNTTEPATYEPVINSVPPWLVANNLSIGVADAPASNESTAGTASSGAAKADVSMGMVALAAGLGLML

| MOLECULE | IC50 |
| --- | --- |
| C[N+]1(CCCCCCCCCCCC[N+]2(C)CCCC2)CCCC1 | > 250 µM |
| C[N+](C)(C)CCCCCCCCCC[N+](C)(C)C.[Br-].[Br-] [DECAMETHONIUM BROMIDE] | > 250 µM |
| C(CCCCCC[N+]12CCC(CC1)CC2)CCCCC[N+]12CCC(CC1)CC2 | > 250 µM |
| C[N+](C)(C)CCCCCCCCCCCC[N+](C)(C)C.[Br-].[Br-] | > 250 µM |
| CCCC[N+](CCCC)(CCCC)CCCCCCCCCCCC[N+](CCCC)(CCCC)CCCC.[Cl-].[Cl-] | 10 µM |
| CC[N+](CC)(CC)CCCCCCCCCCCC[N+](CC)(CC)CC | > 250 µM |

Origin of values: ChEMBL document CHEMBL1148608
